# Measured on: human MetAP2 enzyme (Homo sapiens, UniProt P50579)
# Sequence (P50579 whole entry): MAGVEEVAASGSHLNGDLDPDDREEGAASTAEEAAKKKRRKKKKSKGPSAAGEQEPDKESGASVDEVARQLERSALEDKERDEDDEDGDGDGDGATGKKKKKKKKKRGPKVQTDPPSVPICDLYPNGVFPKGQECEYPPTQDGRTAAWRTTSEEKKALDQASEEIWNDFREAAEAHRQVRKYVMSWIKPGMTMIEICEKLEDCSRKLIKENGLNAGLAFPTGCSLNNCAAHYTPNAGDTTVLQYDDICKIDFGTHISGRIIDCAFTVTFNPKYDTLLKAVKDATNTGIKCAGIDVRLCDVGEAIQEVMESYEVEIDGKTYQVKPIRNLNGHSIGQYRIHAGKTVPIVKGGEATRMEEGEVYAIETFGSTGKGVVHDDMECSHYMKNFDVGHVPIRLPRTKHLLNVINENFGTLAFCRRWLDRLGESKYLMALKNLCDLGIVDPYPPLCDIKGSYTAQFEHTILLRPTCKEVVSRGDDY
# Protocol summary: MetAP2 enzyme assay, enzyme complexed with cobalt ions
# Setup conditions: MetAP2 Co pIC50, MetAP2 enzyme complexed with cobalt ions; Met-AMC substrate at Km
# key: entry, value: log10(IC50)
Note the log scale: values are log10 of IC50 expressed in nM.

Known log10(IC50) results, listed for orientation:
In [3]: df
Out[3]:
                                   compound  measured_value
0  O=C(NCCO)c1ccc(-c2cc(C(F)(F)F)cc3[nH]ncc23)cc1            0.90
1  COc1ncc(-c2cc(C(F)(F)F)cc3[nH]ncc23)c(N)n1            2.10
2  CN(C)CCOc1ccc(-c2cc(C(F)(F)F)cc3[nH]ncc23)cc1            1.50
3  NC(=O)c1ccc(-c2cc(C(F)(F)F)cc3[nH]ncc23)cc1            1.40
4  FC(F)(F)c1cc(-c2ccc(OCCN3CCOCC3)cc2)c2cn[nH]c2c1            1.80
5  CN1CCN(C(=O)c2cc(-c3cc(C(F)(F)F)cc4[nH]ncc34)c(=O)n(C)c2)CC1            2.10

**Q:** Consider the compound COc1nc(C(N)=O)ccc1-c1cc(C(F)(F)F)cc2[nH]ncc12 and give its measured log10(IC50).
**A:** 1.60

**Q:** Okay, and Cn1cc(-c2cc(C(F)(F)F)cc3[nH]ncc23)c(N)n1 ?
**A:** 2.30

**Q:** Okay, and COC(=O)c1c[nH]c(=O)c(-c2cc(C(F)(F)F)cc3[nH]ncc23)c1 ?
**A:** 2.00

**Q:** Okay, and COc1cc(C(N)=O)ccc1-c1cc(C(F)(F)F)cc2[nH]ncc12 ?
**A:** 1.20

**Q:** Okay, and COc1ccc(CO)cc1-c1cc(C(F)(F)F)cc2[nH]ncc12 ?
**A:** 1.20

**Q:** Okay, and Nc1ncc(F)cc1-c1cc(C(F)(F)F)cc2[nH]ncc12 ?
**A:** 2.20

**Q:** Okay, and N#CCc1cccc(-c2cc(C(F)(F)F)cc3[nH]ncc23)c1 ?
**A:** 1.50

**Q:** Okay, and Cc1nn(CC2(C)COC2)c(C)c1-c1cc(C(F)(F)F)cc2[nH]ncc12 ?
**A:** 2.60

**Q:** Okay, and CNC(=O)c1ccc(-c2cc(C(F)(F)F)cc3[nH]ncc23)cn1 ?
**A:** 1.70

**Q:** Okay, and FC(F)(F)c1cc(-c2c[nH]c3nccnc23)c2cn[nH]c2c1 ?
**A:** 2.40

**Q:** Okay, and CNc1nc(C)c(-c2cc(C(F)(F)F)cc3[nH]ncc23)cc1C(=O)N1CC(O)C1 ?
**A:** 1.20

**Q:** Okay, and COc1ccc(C(N)=O)cc1-c1cc(C(F)(F)F)cc2[nH]ncc12 ?
**A:** 1.30

**Q:** Okay, and Nc1ncc(Cl)cc1-c1cc(C(F)(F)F)cc2[nH]ncc12 ?
**A:** 2.20

**Q:** Okay, and CS(=O)(=O)c1cccc(-c2cc(C(F)(F)F)cc3[nH]ncc23)c1 ?
**A:** 1.70

**Q:** Okay, and Cc1nn(C)cc1-c1cc(C(F)(F)F)cc2[nH]ncc12 ?
**A:** 1.50

**Q:** Okay, and CN(C)C(=O)c1cccc(-c2cc(C(F)(F)F)cc3[nH]ncc23)c1 ?
**A:** 1.80

**Q:** Okay, and CC(C)CNC(=O)c1cccc(-c2cc(C(F)(F)F)cc3[nH]ncc23)c1 ?
**A:** 2.20

**Q:** Okay, and NC(=O)c1cccc(-c2cc(C(F)(F)F)cc3[nH]ncc23)c1 ?
**A:** 1.40

**Q:** Okay, and OCCn1cc(-c2cc(C(F)(F)F)cc3[nH]ncc23)cn1 ?
**A:** 2.00

**Q:** Okay, and FC(F)(F)c1cc(-c2cnc3cnccn23)c2cn[nH]c2c1 ?
**A:** 3.30
